Target: T1, human TGF-β3 (human, UniProt P10600 301-412)
T1 sequence: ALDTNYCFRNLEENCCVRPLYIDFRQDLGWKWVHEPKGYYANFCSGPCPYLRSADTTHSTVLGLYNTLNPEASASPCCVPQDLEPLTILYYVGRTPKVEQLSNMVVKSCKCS
Experiment: cell-based or functional assay
PROPERTY_LABEL: RGA (CAGA-12 luc/Smad-2/3 RGA; IC 50 [pM])

Reference set, count: 2
- BINDER: "MOR14809 (antibody, human IgG1, lambda, V domains shown) VH: QVQLVQSGAEVKKPGESLKISCKGSGYSFTRYWIAWVRQMPGKGLEWMGIIDPGTSDTRYSPSFQGQVTISADKSISTAYLQWSSLKASDTAMYYCARIDKSLILHSAFDYWGQGTLVTVSS VL: SYELTQPLSVSVALGQTARITCSGDNLGGYYAYWYQQKPGQAPVLVIYETNNRPSGIPERFSGSNSGNTATLTISRAQAGDEADYYCASTTQDYLVFVFGGGTKLTVLG"
  RESULT: "> 100000 pM"
- BINDER: "MOR14797 (antibody, human IgG1, kappa, V domains shown, (no LALA)) VH: QVTLRESGPALVKPTQTLTLTCTFSGFSLSTSGMGVGWIRQPPGKALEWLAHIYWNDDKSYSTSLKTRLTISKDTSKNQVVLTMTNMDPVDTATYYCARDFYYSGYFDSWGQGTLVTVSS VL: DIQMTQSPSSLSASVGDRVTITCRASQDISNYLNWYQQKPGKAPKLLIFGASSLQSGVPSRFSGSGSGTDFTLTISSLQPEDFATYYCQQTNTMNTFGQGTKVEIKR"
  RESULT: "> 100000 pM"

## Input Determine its reported RGA (CAGA-12 luc/Smad-2/3 RGA; IC 50 [pM]): MOR14799 (antibody, human IgG1, lambda, V domains shown) VH: QVQLVQSGAEVKKPGESLKISCKGSGYSFTRYYVAWVRQMPGKGLEWMGWIDPGQSNTRYSPSFQGQVTISADKSISTAYLQWSSLKASDTAMYYCARMLAWGWFDYWGQGTLVTVSS VL: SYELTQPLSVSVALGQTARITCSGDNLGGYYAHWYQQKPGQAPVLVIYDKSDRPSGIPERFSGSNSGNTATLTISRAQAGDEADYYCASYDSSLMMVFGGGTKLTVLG
## Output > 100000 pM
